molecular target: UniProtKB O14920
Sequence (O14920 whole entry, species assumed): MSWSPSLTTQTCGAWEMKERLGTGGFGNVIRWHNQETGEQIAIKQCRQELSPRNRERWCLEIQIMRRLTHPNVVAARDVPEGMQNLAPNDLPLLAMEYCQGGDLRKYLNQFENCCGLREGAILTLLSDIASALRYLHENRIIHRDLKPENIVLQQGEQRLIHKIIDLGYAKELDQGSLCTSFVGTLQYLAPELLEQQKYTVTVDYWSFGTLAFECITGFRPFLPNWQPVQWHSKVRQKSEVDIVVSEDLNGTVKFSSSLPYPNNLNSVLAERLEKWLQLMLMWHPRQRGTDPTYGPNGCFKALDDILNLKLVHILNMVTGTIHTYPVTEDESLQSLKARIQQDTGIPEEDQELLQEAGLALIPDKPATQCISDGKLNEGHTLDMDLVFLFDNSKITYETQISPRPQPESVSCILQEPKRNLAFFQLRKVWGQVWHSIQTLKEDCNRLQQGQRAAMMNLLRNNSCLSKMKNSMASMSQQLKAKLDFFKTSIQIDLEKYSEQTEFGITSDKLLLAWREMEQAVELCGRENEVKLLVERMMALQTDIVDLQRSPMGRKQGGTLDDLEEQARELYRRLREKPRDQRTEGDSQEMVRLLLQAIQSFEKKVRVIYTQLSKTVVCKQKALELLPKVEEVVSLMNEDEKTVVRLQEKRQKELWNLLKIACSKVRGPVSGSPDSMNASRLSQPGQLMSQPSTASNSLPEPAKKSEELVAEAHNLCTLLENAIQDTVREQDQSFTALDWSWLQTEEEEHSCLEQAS
reported metric: IC50

# query: IC50 | item `Nc1ccc2snc3c2c1C(=O)c1ccccc1-3` | system: UniProtKB O14920 > 30 µM

* * *

Target: MEK6 (Homo sapiens, UniProt P52564)
Sequence (P52564 1-334): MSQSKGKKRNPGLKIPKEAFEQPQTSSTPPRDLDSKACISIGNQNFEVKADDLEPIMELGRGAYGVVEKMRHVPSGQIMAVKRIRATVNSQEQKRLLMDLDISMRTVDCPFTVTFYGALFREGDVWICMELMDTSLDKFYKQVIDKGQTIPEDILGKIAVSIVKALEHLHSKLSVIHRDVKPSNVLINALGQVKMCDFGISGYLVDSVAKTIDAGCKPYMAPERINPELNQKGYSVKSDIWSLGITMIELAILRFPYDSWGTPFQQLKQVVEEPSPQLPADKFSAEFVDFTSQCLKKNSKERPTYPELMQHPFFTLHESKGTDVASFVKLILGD
reported metric: IC50

Entry `Nc1ccc2snc3c2c1C(=O)c1ccccc1-3` : reported IC50 = ? > 30 µM

* * *

Assay: Brain-blood plasma distribution in vivo
Parameters: species or system Sprague-Dawley rats
Settings: Sprague-Dawley, iv; rat, 10 mg/kg intravenously, 2 hr post-dose; assuming 1 g brain tissue equivalent to 1 mL plasma; read-out: Brain-plasma concentration ratio
Method: 5-Amino-anthra(9,1-cd)isothiazol-6-one was administered intravenously (10 mg/kg) into the veins of Sprague-Dawley rats. […] The concentration of 5-amino-anthra(9,1-cd) isothiazol-6-one in the brain and plasma was determined by comparing HPLC chromatograms obtained from the brain homogenate analysis samples and plasma analysis samples to standard curves constructed from analysis of the brain homogenate standard analysis samples and the plasma standard analysis samples, respectively. […]
reported metric: Kp at 2 h

Entry `Nc1ccc2snc3c2c1C(=O)c1ccccc1-3` : reported Kp at 2 h = ? ~9
